Assay: AUC (0 to infinity) in Sprague-Dawley rat at 4 mg/kg, iv measured after 0.03 to 24 hrs by HPLC/MS analysis
Format: ADME, organism-based
Set-up: dose 4 mg/kg, time infinity, route intravenous
Details: in vivo
attribute.measured: AUC(0-inf) (ng·h/mL)

                                        smi  observed_measurement
0  Cc1cn(-c2cc(NC(=O)c3ccc4c(c3)CN(c3cncnc3)C[C@@H]4C)cc(C(F)(F)F)c2)cn1                   236

###

Assay: Cmax in ICR mouse at 1 mg/kg, iv measured after 5 mins to 24 hrs by HPLC/MS analysis
Format: ADME, organism-based
Parameters: dose 1 mg/kg, route intravenous
Conditions: in vivo
attribute.measured: Cmax (ng/mL)

                                        smi  observed_measurement
0  Cc1cn(-c2cc(NC(=O)c3ccc4c(c3)CN(c3cncnc3)C[C@@H]4C)cc(C(F)(F)F)c2)cn1                  2250
